Tested on: HOP-62 NSCLC
procedure.details: NCI tumour cell line growth inhibition, 48 h
Overview of reported GI50 across a group of molecules:

smiles.string: COc1cc2nc(-c3ccc(C(F)(F)F)cc3)cc(OCCCN3CCOCC3)c2cc1OC
tested.system: HOP-62 NSCLC
GI50: 1670 nM
//
smiles.string: CC(=O)Oc1cc(C)ccc1[C@]1(C)CC[C@H](C)/C1=C\Br
tested.system: HOP-62 NSCLC
GI50: 9220 nM
//
smiles.string: CC[N+](CCCCCCCCCC[N+](CC)(c1ccccn1)c1ccccn1)(c1ccccn1)c1ccccn1
tested.system: HOP-62 NSCLC
GI50: 2150 nM
//
smiles.string: O=C1c2cc(Br)ccc2-c2c1c1ccc([N+](=O)[O-])cc1c(=O)n2CCCCl
tested.system: HOP-62 NSCLC
GI50: 837 nM

###

Parameter TGI: see the listing below.
Tested on: SNB-19 CNS
procedure.details: NCI tumour cell line growth inhibition, 48 h

molecule: COS(=O)c1cc(Cl)cc(Cl)c1O (stereo not given)
TGI: > 100 µM

molecule: COc1ccc(NC(=O)C2C(=O)N(c3ccc(OC)cc3)C(=O)/C2=N/O)cc1 (stereo not given)
TGI: > 70.5 µM

molecule: CC(C)(C)OC(=O)N1C(OP(=O)(Oc2ccccc2)Oc2ccccc2)=COc2cccnc21
TGI: > 100 µM

molecule: COc1ccc2c(c1)C(=O)CC(N)C2 (stereo not given)
TGI: > 100 µM

molecule: CC[N+](CC)=c1ccc2nc3c(cc(N)c4ccccc43)oc-2c1
TGI: 1.04 µM

molecule: NC(N)=N/N=C(/c1nc2ccc([N+](=O)[O-])cc2[nH]c1=O)C(O)c1ccco1 (stereo not given)
TGI: > 100 µM

molecule: O=C1OS2(OCc3cccc4cccc2c34)c2ccccc21 (stereo not given)
TGI: > 100 µM

molecule: CCOC(=O)c1c(N2CCOCC2)[nH]c(=O)c(C(c2ccc(OC)cc2)c2c(O)c(C(=O)OCC)c(N3CCOCC3)[nH]c2=O)c1O
TGI: > 100 µM

molecule: O=C(O)c1ccc(Nc2nc3cc(C(F)(F)F)ccc3nc2C(=O)O)cc1
TGI: > 100 µM

molecule: CCOC(=O)C1=C(C)NC(=S)NC1c1cccc(O)c1 (stereo not given)
TGI: > 100 µM

###

Tested on: SF-539 CNS
procedure.details: NCI tumour cell line growth inhibition, 48 h
quantity.kind: TGI

compound: CC(C)n1c(=O)n(-c2ccccc2)n(C(C)(C)C)c1=O
test.value: > 100 µM

compound: N#CCCc1nc2ccc(Br)cc2c(=O)n1CCO
test.value: > 100 µM

compound: CCOC(=O)C(O)(NC(C)=O)C(F)(F)F (configuration not stated)
test.value: > 100 µM

compound: COc1ccc2c(c1)sc1nc(-c3ccccc3)c(-c3ccsc3)n12
test.value: > 100 µM

compound: COC(=O)c1cncc2c1CC1C3(C(=O)OC)C=NC(C4C(CO)=CCC43)C21C (configuration not stated)
test.value: > 100 µM

compound: c1cnc2c(c1)-n1cccc1C1(CCSCC1)NN2
test.value: > 100 µM

compound: COc1cc(-c2nc3ccc(C)cc3[nH]2)ccc1OCC(=O)N=Nc1c(O)[nH]c2ccccc12
test.value: 3.01 µM

compound: Cc1ccc(O)c(C2=NNC(c3cccc(Br)c3)C2)c1 (configuration not stated)
test.value: > 100 µM

compound: CC1=C2C(O)C(C(C)CO)C(O)CC2(C)C(O)CC1 (configuration not stated)
test.value: > 100 µM

compound: CC[N+](C)(CC)CCN1C(=O)c2ccccc2S1(=O)=O
test.value: > 100 µM

compound: C=C1C[C@]23C[C@@]1(O)CC[C@H]2[C@@]12C=C[C@H](O)[C@@](C)(C(=O)O1)[C@H]2[C@@H]3C(=O)O
test.value: > 100 µM

compound: CSCCC(NC(=O)OC(C)(C)C)C(=O)NCCNc1ccc(NCCNC(=O)C(CCSC)NC(=O)OC(C)(C)C)c2c1C(=O)c1ccccc1C2=O (configuration not stated)
test.value: 6.96 µM

compound: CN1CCN(Cc2ccc(NC(=O)c3cncc(C#Cc4cnc(N)c5ccc(F)cc45)c3)cc2C(F)(F)F)CC1
test.value: 6.13 µM

compound: COC(=O)C(C)Sc1nc2cc(Cl)ccc2s1 (configuration not stated)
test.value: > 100 µM

compound: CCOC(=O)c1sc2c(c1OC(=O)c1ccccc1)c(=O)n(-c1ccccc1)c(=S)n2-c1ccccc1
test.value: 47.7 µM

compound: Clc1nc(Oc2ccccc2)nc(-c2cn(-c3ccccc3)c3ccccc23)n1
test.value: 30 µM

compound: CCOC(=O)c1cn(-c2ccc(Cl)cc2)c(=O)n2c1nc1ccccc12
test.value: > 100 µM

compound: CC(=O)O/N=C/c1ncccc1CO
test.value: > 100 µM

compound: O=C1c2ccccc2CC12Cc1ccc3c(c1C2)CCC3 (configuration not stated)
test.value: 90.2 µM

compound: CC(=O)NC1=N/C(=C/c2cc([N+](=O)[O-])ccc2O)CN1C
test.value: > 100 µM

compound: Nc1ccc(C(=O)N/C(=C\C=C\c2ccco2)c2nc3[nH]c(=S)[nH]c(=O)c3[nH]2)cc1
test.value: > 100 µM

compound: NC(=O)COc1ccccc1
test.value: > 100 µM

Hey, just so you know, these numbers are from PubChem BioAssay (NCI).
